Assay: The drug is tested on Escherichia coli strain: BW25113 for biotransformation. The drug concentrations were measured before and after a 12-h incubation by liquid-chromatography-coupled mass spectrometry (LC–MS)
Settings: 2 µM
measured.attribute: Bacterial Biotransformation

>>> result("COc1ccc2c(c1)c(CC(=O)O)c(C)n2C(=O)c1ccc(Cl)cc1 [INDOMETHACIN]")
"Compound metabolized"
>>> result("C[C@@H]1CC[C@H]2[C@@H](C)C(=O)O[C@@H]3O[C@@]4(C)CC[C@@H]1[C@]32OO4 [ARTEMISININ]")
"Compound metabolized"
>>> result("COc1c2occc2cc2ccc(=O)oc12 [METHOXSALEN]")
"Compound NOT metabolized"
>>> result("CN1C(=O)CCS(=O)(=O)C1c1ccc(Cl)cc1 (configuration not stated) [CHLORMEZANONE]")
"Compound NOT metabolized"
>>> result("C=CC[C@@H]1/C=C(\\C)C[C@H](C)C[C@H](OC)[C@H]2O[C@@](O)(C(=O)C(=O)N3CCCC[C@H]3C(=O)O[C@H](/C(C)=C/[C@@H]3CC[C@@H](O)[C@H](OC)C3)[C@H](C)[C@@H](O)CC1=O)[C@H](C)C[C@@H]2OC.O [TACROLIMUS]")
"Compound metabolized"
>>> result("CC(C)(Oc1ccc(CCNC(=O)c2ccc(Cl)cc2)cc1)C(=O)O [BEZAFIBRATE]")
"Compound metabolized"
>>> result("CCCCC1=NC2(CCCC2)C(=O)N1Cc1ccc(-c2ccccc2-c2nnn[nH]2)cc1 [IRBESARTAN]")
"Compound metabolized"

Values from ChEMBL document CHEMBL5303573
